Target: human Cereblon WT GST-tagged protein (Homo sapiens)
Construct: purchased CISBIO 64BDCRBNPEH
Sequence (Q96SW2 whole entry): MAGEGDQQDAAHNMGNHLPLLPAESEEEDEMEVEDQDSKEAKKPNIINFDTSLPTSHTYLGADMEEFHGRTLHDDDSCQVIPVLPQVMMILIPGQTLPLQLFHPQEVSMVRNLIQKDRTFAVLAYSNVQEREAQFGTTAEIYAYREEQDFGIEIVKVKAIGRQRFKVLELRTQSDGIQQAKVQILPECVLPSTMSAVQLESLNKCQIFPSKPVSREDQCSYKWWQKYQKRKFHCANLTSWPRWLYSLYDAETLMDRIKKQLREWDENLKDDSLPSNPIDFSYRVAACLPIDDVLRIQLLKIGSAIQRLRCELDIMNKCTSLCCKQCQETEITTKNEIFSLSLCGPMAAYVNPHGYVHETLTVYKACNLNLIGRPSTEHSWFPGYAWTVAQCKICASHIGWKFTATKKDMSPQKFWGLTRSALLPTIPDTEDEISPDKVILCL
Assay: CRBN-binding affinity, HTRF (CEREBLON BINDING kit)
Settings: read-out: Inhibition Rate at 0.5 µM (%)
Method: The CEREBLON BINDING kits (specification: 10,000 tests; product number: Catalog # 64BDCRBNPEH; CISBIO company) was used to determine the CRBN binding ability of the compounds to be tested through a HTRF method (homogeneous time-resolved fluorescence). The specific methods are as follows: • 1. […] Specifically, diluent #9 (1X) solution was used as the diluent, and multiple concentration gradients were set. […] Then, 2.5 µL of human Cereblon WT GST-tagged protein solution was added to each well. […]
Exercise: state measured inhibition at 0.5 µM for each of the molecules provided.

Ask: What does the record list as inhibition at 0.5 µM for CC1(C)CN(Cc2ccc3c(c2)CN(C2CCC(=O)NC2=O)C3=S)CCN1C(c1ccccc1)c1ccccc1 (stereo not shown) ?
Reply: 40 to 53%

Ask: Please answer likewise for Cc1ccc(N2CCN(Cc3cccc4c3CN(C3CCC(=O)NC3=O)C4=S)CC2)c(C)c1 (stereo not shown)
Reply: 30 to 40%

Ask: Here is the next molecule: C[C@@H]1CN(C(c2ccccc2)c2ccccc2)CCN1Cc1cccc2c1CN(C1CCC(=O)NC1=O)C2=S (stereo partly shown)
Reply: 40 to 53%

Ask: Would you kindly repeat that for O=C1CCC(N2Cc3cc(CN4CCC(c5ccc(Br)cc5)CC4)ccc3C2=S)C(=O)N1 (stereo not shown) ?
Reply: 30 to 40%

Ask: Now try O=C1CCC(N2Cc3cc(CN4CC5CCC(C4)N5C(c4ccccc4)c4ccccc4)ccc3C2=S)C(=O)N1 (stereo not shown) .
Reply: 30 to 40%

Ask: Now give it for Cc1cc(C2=CCN(Cc3cccc4c3CN(C3CCC(=O)NC3=O)C4=S)CC2)cs1 (stereo not shown) too.
Reply: 40 to 53%

Ask: Further, for CC1(C)CN(Cc2cccc3c2CN(C2CCC(=O)NC2=O)C3=S)CCN1C(c1ccccc1)c1ccccc1 (stereo not shown) ?
Reply: 53 to 60%

Ask: Please answer likewise for O=C1CCC(N2Cc3c(CN4CCN(c5ccc(Br)cc5)CC4)cccc3C2=S)C(=O)N1 (stereo not shown)
Reply: 40 to 53%

Ask: Subsequent entry: O=C1CCC(N2Cc3c(CN4CCC(c5c[nH]c6cc(F)ccc56)CC4)cccc3C2=S)C(=O)N1 (stereo not shown)
Reply: 60 to 80%

Ask: Continue with O=C1CCC(N2Cc3cc(CN4CCN(C(c5ccccc5)c5cccnc5)CC4)ccc3C2=S)C(=O)N1 (stereo not shown)
Reply: 53 to 60%

Ask: Param item: O=C1CCC(N2Cc3cc(CN4CCC(c5ccnc(F)c5F)CC4)ccc3C2=S)C(=O)N1 (stereo not shown)
Reply: 60 to 80%

Ask: What about this molecule? O=C1CCC(N2Cc3cc(CN4CCN(c5ccccc5Cl)CC4)ccc3C2=S)C(=O)N1 (stereo not shown)
Reply: 40 to 53%

Ask: // same read-out, input: Cc1cc(C2CCN(Cc3ccc4c(c3)CN(C3CCC(=O)NC3=O)C4=S)CC2)cs1 (stereo not shown)
Reply: 60 to 80%

Ask: Also need O=C1CCC(N2Cc3c(CN4CCC(n5cnc6cc(F)ccc65)CC4)cccc3C2=S)C(=O)N1 (stereo not shown) , thanks.
Reply: 40 to 53%

Ask: Proceed to O=C1CCC(N2Cc3cc(CN4CCN(c5ncc(C(F)(F)F)cc5Cl)CC4)ccc3C2=S)C(=O)N1 (stereo not shown)
Reply: 40 to 53%

Ask: Param item: O=C1CCC(N2Cc3cc(CN4CCC(c5ncnc6scc(-c7ccccc7)c56)CC4)ccc3C2=S)C(=O)N1 (stereo not shown)
Reply: 60 to 80%

Reference source for all entries: patent EP4745135A1
